# Experimental system: α-lipoamide dehydrogenase (Rattus norvegicus, UniProt Q6P6R2)
# Construct: After 3 min incubation of rat liver mitochondria (0.3 mg protein/mL) in MTP medium; from tissue; host or cells: liver mitochondria of Wistar rat
# Method notes: α-lipoamide dehydrogenase activity in intact mitochondria (re-reduction of NAD(P)+ after α-lipoamide, NAD(P)H fluorescence)
# Assay type: biochemical
# Cond: isolated rat liver mitochondria; pyruvate-dependent reduction of NAD(P)+; estimated value; read-out: Apparent IC50 of inhibition of α-lipoamide dehydrogenase
pIC50: −log10 of the molar value.
As shown below, each of these compounds has a reported pIC50 value.
Quantity measured: pIC50

>>> result("CCC(C)C(CC)C(N)=O (centres unmarked) [VCD, Valnoctamide]")
"< 3.00"
>>> result("CCCC(CCC)C(N)=O [VPD, Valpromide]")
"< 3.00"

----------
# Experimental system: α-lipoamide dehydrogenase (Rattus norvegicus, UniProt Q6P6R2)
# Construct: After 3 min incubation of rat liver mitochondria (0.3 mg protein/mL) in MTP medium; from tissue; host or cells: liver mitochondria of Wistar rat
# Method notes: α-lipoamide dehydrogenase activity in intact mitochondria (re-reduction of NAD(P)+ after α-lipoamide, NAD(P)H fluorescence)
# Assay type: biochemical
# Cond: isolated rat liver mitochondria; pyruvate-dependent reduction of NAD(P)+ after 75 µM α-lipoamide; preincubation with 1 mM ATP; read-out: Apparent IC50 of inhibition of α-lipoamide dehydrogenase
pIC50: −log10 of the molar value.
Quantity measured: pIC50

>>> recorded_number("CCCC(CCC)C(=O)O")
4.10

----------
# Experimental system: α-lipoamide dehydrogenase (Rattus norvegicus)
# Construct: After 3 min incubation of rat liver mitochondria (0.3 mg protein/mL) in MTP medium; from tissue; host or cells: liver mitochondria of Wistar rat
# Sequence (Q6P6R2 36-509): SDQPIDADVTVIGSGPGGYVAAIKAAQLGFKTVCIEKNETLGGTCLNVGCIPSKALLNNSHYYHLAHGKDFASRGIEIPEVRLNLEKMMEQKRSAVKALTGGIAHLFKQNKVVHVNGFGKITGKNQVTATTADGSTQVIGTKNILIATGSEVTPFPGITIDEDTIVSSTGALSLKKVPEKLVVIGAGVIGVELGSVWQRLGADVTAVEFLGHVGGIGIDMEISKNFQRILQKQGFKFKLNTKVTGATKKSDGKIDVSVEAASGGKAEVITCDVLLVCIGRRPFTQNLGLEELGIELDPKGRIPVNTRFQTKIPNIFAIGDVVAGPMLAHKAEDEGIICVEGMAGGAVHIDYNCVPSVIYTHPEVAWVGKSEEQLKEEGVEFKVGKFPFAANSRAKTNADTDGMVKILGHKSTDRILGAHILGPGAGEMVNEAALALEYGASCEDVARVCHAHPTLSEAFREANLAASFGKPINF
# Method notes: α-lipoamide dehydrogenase activity in intact mitochondria (re-reduction of NAD(P)+ after α-lipoamide, NAD(P)H fluorescence)
# Format: biochemical
# Cond: rat liver mitochondria; abstract summary
Quantity measured: inhibition of α-lipoamide dehydrogenase (in words)

>>> result("CCCC(C(N)=O)C(C)CC (centres unmarked) [SPD, sec-Butylpropylacetamide]")
"only small effects"
>>> result("CCC(C)C(CC)C(N)=O (centres unmarked) [VCD, Valnoctamide]")
"only small effects"
>>> result("CCCC(CCC)C(N)=O [VPD, Valpromide]")
"only small effects"
